# assay system: Nuclear receptor ROR-alpha (Homo sapiens, UniProt P35398)
# Sequence (P35398 whole entry): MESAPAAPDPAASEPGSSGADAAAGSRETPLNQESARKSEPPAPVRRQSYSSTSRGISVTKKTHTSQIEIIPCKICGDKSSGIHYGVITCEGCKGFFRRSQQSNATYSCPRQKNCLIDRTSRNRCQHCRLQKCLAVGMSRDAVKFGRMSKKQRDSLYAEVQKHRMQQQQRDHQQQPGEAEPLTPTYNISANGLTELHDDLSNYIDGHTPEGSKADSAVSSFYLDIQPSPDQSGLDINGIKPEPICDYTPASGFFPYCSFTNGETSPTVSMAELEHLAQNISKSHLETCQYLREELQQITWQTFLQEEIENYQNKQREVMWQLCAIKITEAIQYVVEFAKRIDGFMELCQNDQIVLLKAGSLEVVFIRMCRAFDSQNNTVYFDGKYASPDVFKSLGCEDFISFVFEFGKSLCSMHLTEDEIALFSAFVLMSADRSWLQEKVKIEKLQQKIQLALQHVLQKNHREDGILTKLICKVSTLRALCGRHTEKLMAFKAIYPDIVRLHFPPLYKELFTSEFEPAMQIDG
Recorded IC50 for compounds tested on Nuclear receptor ROR-alpha (Homo sapiens, UniProt P35398), drawn from a number of studies.

1) O=C(O)[C@H]1CC[C@H](C(=O)N2CC[C@@]3(S(=O)(=O)c4ccc(Cl)cc4)c4ccc(C(F)(C(F)(F)F)C(F)(F)F)cc4CC[C@@H]23)CC1
> 10 µM

Record IC50 per entry; entries follow.
1. CCOC(=O)C(C)Oc1cccc2c(=O)n(CC(=O)NCc3ccc4c(c3)OCO4)ccc12 (centres undefined)
2. O=C(O)[C@H]1CC[C@@H](C(=O)N2CC[C@@]3(S(=O)(=O)c4ccc(F)cc4)c4ccc(C(F)(C(F)(F)F)C(F)(F)F)cc4CC[C@@H]23)CC1
3. O=C(O)[C@H]1CC[C@](O)(C(=O)N2CC[C@@]3(S(=O)(=O)c4ccc(F)cc4)c4ccc(C(F)(C(F)(F)F)C(F)(F)F)cc4CC[C@@H]23)CC1

1. > 33 µM
2. > 10 µM
3. > 10 µM

I need IC50 for every entry listed below, if you could help.
1. O=C(O)C12CCC(C(=O)N3CC[C@@]4(S(=O)(=O)c5ccc(F)cc5)c5ccc(C(F)(C(F)(F)F)C(F)(F)F)cc5CC[C@@H]34)(CC1)CC2
2. O=C(N1CC[C@@]2(S(=O)(=O)c3ccc(F)cc3)c3ccc(C(F)(C(F)(F)F)C(F)(F)F)cc3OC[C@@H]12)C1(O)CCS(=O)(=O)CC1
3. CCS(=O)(=O)c1ccc(C(NC(C)=O)C(=O)Nc2cc(-c3cc(C#N)cnc3OCC(F)(F)F)cs2)cc1 (centres undefined)

> 10 µM
> 10 µM
0.6 µM

Would you be so kind as to report IC50 for each listed record?
1. CC(C)[C@@H]1CN(c2ccc(CO)c(S(C)(=O)=O)c2)CCN1c1ncc(CO)c(C(F)(F)F)n1
2. CCS(=O)(=O)c1ccc([C@@H](NC(C)=O)C(=O)Nc2cc(-c3cccnc3OCc3ccc(OC(F)(F)F)cc3)cs2)cc1
3. O=C(O)C12CC(C(=O)N3CC[C@@]4(S(=O)(=O)c5ccc(F)cc5)c5ccc(C(F)(C(F)(F)F)C(F)(F)F)cc5CC[C@@H]34)(C1)C2
4. CCOC(=O)C(C)Oc1cccc2c(=O)n(CC(=O)NCc3ccc(F)cc3)ccc12 (centres undefined)

1. > 10 µM
2. 9.4 µM
3. > 10 µM
4. 1.68 µM

// each compound listed below needs its IC50
1. CCN1C[C@H]2N(C(=O)[C@H]3CC[C@H](C(=O)O)CC3)CC[C@@]2(S(=O)(=O)c2ccc(F)cc2)c2ccc(C(F)(C(F)(F)F)C(F)(F)F)cc21
2. CCOC(=O)C(C)Oc1cccc2c(=O)n(CC(=O)Nc3ccc(C)cc3)ccc12 (centres undefined)
3. O=C(O)[C@H]1CC[C@H](C(=O)N2CC[C@@]3(S(=O)(=O)Cc4ccccc4)c4ccc(C(F)(C(F)(F)F)C(F)(F)F)cc4CC[C@@H]23)CC1

1. > 10 µM
2. 36.5 µM
3. > 10 µM
